Molecular target: rhesus (Macacca Mulatta) H3 receptor (Macaca mulatta)
Construct: pcDNA5/FRT/TO (Invitrogen) containing the rhesus monkey (Macacca Mulatta) 445 amino acid H3 receptor
Sequence (Q865E1 1-445): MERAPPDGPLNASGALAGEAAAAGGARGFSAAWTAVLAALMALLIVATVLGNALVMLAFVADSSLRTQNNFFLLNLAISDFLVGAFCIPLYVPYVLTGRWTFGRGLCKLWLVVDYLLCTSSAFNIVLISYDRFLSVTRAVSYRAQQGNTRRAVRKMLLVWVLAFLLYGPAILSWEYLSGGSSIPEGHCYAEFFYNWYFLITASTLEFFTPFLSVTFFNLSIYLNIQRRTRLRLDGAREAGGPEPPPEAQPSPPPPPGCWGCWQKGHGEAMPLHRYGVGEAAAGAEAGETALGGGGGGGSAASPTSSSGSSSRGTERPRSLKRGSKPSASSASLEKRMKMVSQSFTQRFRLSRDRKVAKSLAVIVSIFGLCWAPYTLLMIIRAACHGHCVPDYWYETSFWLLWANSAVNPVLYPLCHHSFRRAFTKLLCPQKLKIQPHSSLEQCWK
Assay: Rhesus H3 radioligand binding assay ([3H]-methylhistamine displacement, WGA SPA beads)
Settings: [3H]-methylhistamine 2 nM; membranes of Flp-In T-REx 293 cells expressing rhesus H3; Cheng-Prusoff
pKi: −log10 of the molar value.
readout_type: pKi

Sample `Cc1cc(N2CC[C@H](N3CCC[C@H]3C)C2)ccc1N1CCCC2(CCOCC2)C1=O` ; pKi observed: 7.89

Per the records, this molecule ( COCC1CCCN1C1CCN(c2ccc(N3CCC4(CCOCC4)C3=O)cc2)C1 (stereo not shown) ) has pKi equal to 6.72

A. C[C@H]1CCCN1[C@H]1CCN(c2ccc(N3CCC4(CCOCC4)C3=O)c(C(F)(F)F)c2)C1
B. C[C@H]1CCCN1[C@H]1CCN(c2ccc(N3CCC4(CCOCC4)C3=O)c(F)c2)C1
Please let me know which one, A or B , has a lower measured pKi value. Your choice should be expressed through its label.
A
(A: 8.07, B: 9.35)
